As shown below, each of these variants has a reported protein stability index value.
B1: INTS4 (parent)
chain: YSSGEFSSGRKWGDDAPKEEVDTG

# Variants of: B1
# PROTOCOL_TEXT: protein stability index of a GFP-peptide fusion (GPS, HEK-293T) (PSI 1-6); higher = more stable;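 also: lentivirally expressed fusions sorted by FACS into six bins by GFP to DsRed ratio, PSI derived from sequencing read proportions per bin multiplied by bin number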
# EXPERIMENTAL_PARAMETERS: c terminus: a fixed tail appended

Sample records with protein stability index:
W12K : 2.94
P17D : 3.06
P17T : 2.96
K18N : 2.96

// next item, protein stability index requested
**Q:** I'd like to know its protein stability index. The variant in question is `V21D`
**A:** 2.92
